Cited source: ChEMBL document CHEMBL5620424

Field: Activity. Provide a value for each of the molecules that follow.
assay-system: Muscarinic acetylcholine receptor M4 (Homo sapiens)
procedure-details: […] human M4 mAChR expressed in Flp-In-CHO cells co-expressing CAMYEL biosensor assessed as change in baseline response at 10 uM incubated for 5 mins by BRET assay relative to control
Assay type: cell-based
cond: filed as positive allosteric modulator
Report as a plain number; the unit % is understood.

// Cc1ccc(-c2cnn(CC3CCCC3)c2)c(-c2ccc(F)c(F)c2)n1 : Activity value = 51.4

// CNC(=O)c1cccc(-c2nc(C)ccc2-c2cnn(CC3CCCC3)c2)c1 : Activity value = 78.2

// CN1Cc2ccc(-c3ccncc3-c3cnn(CC4CCCC4)c3)cc2C1=O : Activity value = 90.6

// Cc1ccc(-c2cnn(CC3CCCC3)c2)c(-c2ccc3c(c2)C(=O)N(C)C3)n1 : Activity value = 103

// Cc1ccc(-c2cnn(CC3CCCC3)c2)c(-c2cccc(C(N)=O)c2)n1 : Activity value = 77.3
